target: human capsaicin receptor (Homo sapiens, UniProt Q8NER1); construct: transfected with the pBK-CMV expression construct encoding the full length human capsaicin receptor using standard methods; assay: Calcium mobilization assay, determination of antagonist activity; details: 50% decrease in fluorescence response of cells expressing human capsaicin receptor exposed to capsaicin; Example 6
Sequence (Q8NER1 whole entry): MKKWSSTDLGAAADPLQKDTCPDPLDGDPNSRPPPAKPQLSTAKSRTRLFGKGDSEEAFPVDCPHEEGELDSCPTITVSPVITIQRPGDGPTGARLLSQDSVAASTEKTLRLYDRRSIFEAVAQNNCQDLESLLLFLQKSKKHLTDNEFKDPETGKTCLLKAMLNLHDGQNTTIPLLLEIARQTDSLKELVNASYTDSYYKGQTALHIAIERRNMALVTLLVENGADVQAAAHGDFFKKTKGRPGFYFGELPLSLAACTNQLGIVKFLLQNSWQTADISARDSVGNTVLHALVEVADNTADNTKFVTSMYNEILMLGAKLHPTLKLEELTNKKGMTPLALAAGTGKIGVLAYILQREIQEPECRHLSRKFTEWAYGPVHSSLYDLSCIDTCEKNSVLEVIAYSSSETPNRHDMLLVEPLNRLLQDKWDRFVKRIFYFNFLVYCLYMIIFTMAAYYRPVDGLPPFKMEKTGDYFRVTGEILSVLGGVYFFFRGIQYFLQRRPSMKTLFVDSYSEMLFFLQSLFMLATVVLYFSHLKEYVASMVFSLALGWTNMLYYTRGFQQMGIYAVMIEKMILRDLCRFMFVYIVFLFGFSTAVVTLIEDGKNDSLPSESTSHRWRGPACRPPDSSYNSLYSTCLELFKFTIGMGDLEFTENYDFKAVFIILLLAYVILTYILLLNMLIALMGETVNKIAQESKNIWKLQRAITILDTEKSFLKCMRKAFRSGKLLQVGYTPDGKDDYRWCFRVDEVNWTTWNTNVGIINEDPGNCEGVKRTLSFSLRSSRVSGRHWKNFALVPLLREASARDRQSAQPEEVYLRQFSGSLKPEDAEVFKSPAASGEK
pIC50: −log10 of the molar value.
Measured attribute: pIC50

Please review the entries below; each comes with its answer.
{"columns": ["Compound", "Assay result"],
 "data": [
  ["COc1cccc(-c2ncnc(Nc3ccc(C(C)(C)C)cc3)c2C)c1 [Compound 10]", "≥ 6.00"],
  ["COc1cccc(-c2ncnc(Nc3ccc(C(C)(C)C)cc3)c2N)c1 [Compound 17]", "≥ 6.00"],
  ["COc1cccc(-c2cc(Nc3ccc(C(C)(C)C)cc3)ncn2)c1 [Compound 3]", "≥ 6.00"],
  ["COc1ccccc1-c1cc(Nc2ccc(C(C)(C)C)cc2)ncn1 [Compound 2]", "≥ 6.00"]
]}

Let's switch to this compound now.
Lab book: pIC50 of COc1cccc(-c2nc(C)nc(Nc3ccc(C(F)(F)F)cc3)c2C)c1 [Compound 15] noted as ≥ 6.00
